kcat/Km listing for selected proteins.
- Substrate: O=C(Nc1ccccc1)C(=O)c1ccccc1
- test protocol: initial velocity by HPLC of product, nonlinear Michaelis-Menten fit
- Type: biochemical, Bacillus subtilis
- condition notes: NAD(P)H cofactor, potassium phosphate 100 mM pH 7.0, 30 °C

| protein | kcat/Km, M⁻¹ s⁻¹ |
| --- | --- |
| iolS (Bacillus subtilis subsp. subtilis str. 168; I57F) (protein, pET28a, His-tagged, expressed in E. coli BL21(DE3), Ni-NTA purified) MKKAKLGKSDLQVFPIGLGTNAVGGHNLYPNLNEETGKELVREAIRNGVTMLDTAYFYGIGRSEELIGEVLREFNREDVVIATKAAHRKQGNDFVFDNSPDFLKKSVDESLKRLNTDYIDLFYIHFPDEHTPKDEAVNALNEMKKAGKIRSIGVSNFSLEQLKEANKDGLVDVLQGEYNLLNREAEKTFFPYTKEHNISFIPYFPLVSGLLAGKYTEDTTFPEGDLRNEQEHFKGERFKENIRKVNKLAPIAEKHNVDIPHIVLAWYLARPEIDILIPGAKRADQLIDNIKTADVTLSQEDISFIDKLFA | 2320 |
| iolS (Bacillus subtilis subsp. subtilis str. 168; N21A) (protein, pET28a, His-tagged, expressed in E. coli BL21(DE3), Ni-NTA purified) MKKAKLGKSDLQVFPIGLGTAAVGGHNLYPNLNEETGKELVREAIRNGVTMLDTAYIYGIGRSEELIGEVLREFNREDVVIATKAAHRKQGNDFVFDNSPDFLKKSVDESLKRLNTDYIDLFYIHFPDEHTPKDEAVNALNEMKKAGKIRSIGVSNFSLEQLKEANKDGLVDVLQGEYNLLNREAEKTFFPYTKEHNISFIPYFPLVSGLLAGKYTEDTTFPEGDLRNEQEHFKGERFKENIRKVNKLAPIAEKHNVDIPHIVLAWYLARPEIDILIPGAKRADQLIDNIKTADVTLSQEDISFIDKLFA | 3530 |
